Organism: Rattus norvegicus
Assay method text: DrugMatrix - Regimen: Daily Repeat
Type: toxicity, organism-based, Sprague-Dawley
Design: regimen Daily Repeat, gender Male, age 6-8 weeks
Test context: in vivo, po, 1500 mg/kg, 120 h, tissue Blood, route oral GAVAGE, dose level High, time 5 day, vehicle .5 % CMC
Field: HEMOGLOBIN. Provide a value for each of the molecules that follow.

## Task Please look up its HEMOGLOBIN: C[C@]1(Cn2ccnn2)[C@H](C(=O)O)N2C(=O)C[C@H]2S1(=O)=O [TAZOBACTAM]
## Result 13.93 G/DL

## Task Please look up its HEMOGLOBIN: O=C(N[C@H](CO)[C@H](O)c1ccc([N+](=O)[O-])cc1)C(Cl)Cl [CHLORAMPHENICOL]
## Result 14.27 G/DL

## Task Please look up its HEMOGLOBIN: CO[C@H]1/C=C/O[C@@]2(C)Oc3c(C)c(O)c4c(c3C2=O)C2=NC3(CCN(CC(C)C)CC3)NC2=C(NC(=O)/C(C)=C\C=C\[C@H](C)[C@H](O)[C@@H](C)[C@@H](O)[C@@H](C)[C@H](OC(C)=O)[C@@H]1C)C4=O [RIFABUTIN]
## Result 15.25 G/DL

###

Organism: Rattus norvegicus
Assay method text: DrugMatrix - Regimen: Daily Repeat
Format: toxicity, organism-based, Sprague-Dawley
Parameters: regimen Daily Repeat, gender Male, age 6-8 weeks
Test context: in vivo, po, 0 mg/kg, 120 h, tissue Plasma, route oral GAVAGE, dose level Control, time 5 day, […]
Field: CREATININE. Provide a value for each of the compounds that follow.
Field format: number, assumed mg/dL, no unit text.

## Task Please look up its CREATININE: Clc1ccc(Cl)cc1
## Result 0.47

## Task Please look up its CREATININE: CC(=O)Nc1ccc(O)cc1
## Result 0.19

## Task Please look up its CREATININE: CC(C)(Oc1ccc(C2CCCc3ccccc32)cc1)C(=O)O (stereo not given)
## Result 0.19

## Task Please look up its CREATININE: CC(C)Cc1ccc(C(C)C(=O)O)cc1 (stereo not given)
## Result 0.14

## Task Please look up its CREATININE: C[C@H]1O[C@@H](O[C@H]2[C@@H](O)C[C@H](O[C@H]3[C@@H](O)C[C@H](O[C@H]4CC[C@@]5(C)[C@H](CC[C@@H]6[C@@H]5CC[C@]5(C)[C@@H](C7=CC(=O)OC7)CC[C@]65O)C4)O[C@@H]3C)O[C@@H]2C)C[C@H](O)[C@@H]1O
## Result 0.17

## Task Please look up its CREATININE: CC/C(=C(/CC)c1ccc(O)cc1)c1ccc(O)cc1
## Result 0.16

## Task Please look up its CREATININE: Cc1cccc(Nc2ccncc2S(=O)(=O)NC(=O)NC(C)C)c1 [TORSEMIDE]
## Result 0.2

## Task Please look up its CREATININE: COCCOC(=O)C1=C(C)NC(C)=C(C(=O)OC(C)C)C1c1cccc([N+](=O)[O-])c1 (stereo not given)
## Result 0.2

## Task Please look up its CREATININE: O=NN(CCCl)C(=O)NCCCl
## Result 0.19

## Task Please look up its CREATININE: CCCCCCCCc1ccc(O)cc1
## Result 0.23

## Task Please look up its CREATININE: O=C(O)Cc1ccccc1Nc1c(Cl)cccc1Cl
## Result 0.18

## Task Please look up its CREATININE: CC(=O)Nc1cccc(O)c1
## Result 0.2

## Task Please look up its CREATININE: CCOC(=O)C1=C(C)NC(C)=C(C(=O)OC)C1c1cccc([N+](=O)[O-])c1 (stereo not given)
## Result 0.2

## Task Please look up its CREATININE: C[C@]12CC[C@@H]3c4ccc(O)cc4CC[C@H]3[C@@H]1CC[C@@H]2O
## Result 0.2

## Task Please look up its CREATININE: COc1ccc2[nH]c([S+]([O-])Cc3ncc(C)c(OC)c3C)nc2c1 (stereo not given)
## Result 0.2
